Target: HLA B*5101 (Homo sapiens, UniProt P01889, A329T/A93T/A95T/C349S/D138N/D201E/D98Y/E187L/E204Q/E69T/G107R/I218V/K202T/L105A/L119W/N104I/Q94N/R106L/R155S/R180L/S101N/S121T/S35A/S48A/V306I/V36M/Y195H/Y91F)
Format: binding
READOUT_NAME: Normalized average relative binding affinity(ARB)

> print(dat)
          residue.string  measured.number
1  XXXXQXXXX [3064.0094]             0.29
2  XXXXXSXXX [3064.0116]             0.32
3  XXXXWXXXX [3064.0099]             0.19
4  XXXXXXNXX [3064.0132]             0.46
5  XXXXXXLXX [3064.0130]             0.65
6  XXXXXXXHX [3064.0147]             0.33
7  XXXXXCXXX [3064.0102]             0.26
8  XXXXXEXXX [3064.0104]             0.12

###

Each entry below lists one item and its recorded pIC50 value.
Biological target: HLA A*3001 (Homo sapiens, UniProt P04439, D140H/D185E/E176W/F33S/G80R/H175R/K168Q/R138E/R41S)
Sequence (P04439 25-365 limits assumed, stated change not applied): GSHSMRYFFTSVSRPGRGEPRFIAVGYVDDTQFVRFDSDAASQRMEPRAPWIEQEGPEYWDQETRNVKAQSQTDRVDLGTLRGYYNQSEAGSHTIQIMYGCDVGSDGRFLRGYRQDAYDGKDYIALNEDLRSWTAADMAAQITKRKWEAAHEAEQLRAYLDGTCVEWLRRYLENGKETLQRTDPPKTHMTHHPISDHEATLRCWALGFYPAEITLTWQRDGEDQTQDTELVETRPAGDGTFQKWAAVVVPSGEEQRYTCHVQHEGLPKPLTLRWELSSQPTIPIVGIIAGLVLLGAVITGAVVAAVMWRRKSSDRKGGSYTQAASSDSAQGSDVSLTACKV
Test: biochemical
pIC50: −log10 of the molar value. Where a SMILES comes first, the peptide text is derived from it.

MOLECULE	pIC50
CC(C)C[C@H](NC(=O)[C@H](CCC(N)=O)NC(=O)CNC(=O)[C@H](CC(=O)O)NC(=O)[C@H](CCCNC(=N)N)NC(=O)[C@@H](NC(=O)[C@@H](N)[C@@H](C)O)C(C)C)C(=O)N[C@@H](CCC(=O)O)C(=O)N[C@H](C(=O)O)C(C)C [3102.0228] (H-TVRDGQLEV-OH)	7.89
CC(C)C[C@H](NC(=O)[C@H](CO)NC(=O)[C@H](CCC(N)=O)NC(=O)[C@@H](N)Cc1ccc(O)cc1)C(=O)N[C@@H](CO)C(=O)N1CCC[C@H]1C(=O)N1CCC[C@H]1C(=O)N1CCC[C@H]1C(=O)N[C@@H](Cc1ccccc1)C(=O)O [3102.1242] (H-YQSLSPPPF-OH)	9.30
CC(C)C[C@H](NC(=O)[C@H](Cc1ccccc1)NC(=O)[C@H](CC(N)=O)NC(=O)[C@H](Cc1ccccc1)NC(=O)[C@@H]1CCCN1C(=O)[C@H](C)NC(=O)[C@H](CC(C)C)NC(=O)[C@@H](NC(=O)[C@@H](N)CCCCN)[C@@H](C)O)C(=O)O [3102.0030] (H-KTLAPFNFL-OH)	7.82
CC(C)C[C@H](NC(=O)[C@H](Cc1ccc(O)cc1)NC(=O)[C@H](CC(C)C)NC(=O)[C@H](Cc1ccccc1)NC(=O)[C@H](C)NC(=O)[C@H](Cc1ccccc1)NC(=O)[C@H](CCCNC(=N)N)NC(=O)[C@H](Cc1ccc(O)cc1)NC(=O)[C@@H](N)CCCNC(=N)N)C(=O)O [3102.0049] (H-RYRFAFLYL-OH)	9.77
CC[C@H](C)[C@H](NC(=O)[C@H](Cc1ccc(O)cc1)NC(=O)CNC(=O)CNC(=O)[C@@H](NC(=O)[C@H](Cc1ccccc1)NC(=O)[C@H](CCCNC(=N)N)NC(=O)[C@H](C)NC(=O)[C@@H](N)CCCNC(=N)N)[C@@H](C)CC)C(=O)O [3102.0226] (H-RARFIGGYI-OH)	9.59
CC[C@H](C)[C@H](NC(=O)[C@@H](NC(=O)[C@H](CCCCN)NC(=O)[C@H](CO)NC(=O)[C@H](C)N)[C@@H](C)O)C(=O)N[C@@H](CC(N)=O)C(=O)N[C@@H](C)C(=O)N[C@@H](CC(C)C)C(=O)N[C@H](C(=O)O)C(C)C [3102.0095] (H-ASKTINALV-OH)	9.74
CSCC[C@H](NC(=O)[C@H](CCCNC(=N)N)NC(=O)[C@H](Cc1ccc(O)cc1)NC(=O)[C@@H](N)CCCNC(=N)N)C(=O)N[C@@H](Cc1c[nH]cn1)C(=O)N1CCC[C@H]1C(=O)N[C@@H](CCSC)C(=O)N[C@@H](CO)C(=O)N[C@@H](CCCCN)C(=O)O [3102.0268] (H-RYRMHPMSK-OH)	10.17
CC[C@H](C)[C@H](NC(=O)[C@H](Cc1ccccc1)NC(=O)[C@@H]1CCCN1C(=O)[C@H](C)NC(=O)[C@H](CS)NC(=O)[C@H](Cc1c[nH]c2ccccc12)NC(=O)[C@H](CCCCN)NC(=O)[C@@H](NC(=O)[C@@H](N)CCSC)[C@@H](C)O)C(=O)O [3102.0130] (H-MTKWCAPFI-OH)	9.77
CC[C@H](C)[C@H](NC(=O)[C@H](CCSC)NC(=O)[C@H](C)NC(=O)[C@H](C)NC(=O)[C@H](CCCNC(=N)N)NC(=O)[C@H](CC(C)C)NC(=O)[C@@H](N)[C@@H](C)O)C(=O)N[C@@H](CO)C(=O)N[C@@H](CC(C)C)C(=O)O [3102.0245] (H-TLRAAMISL-OH)	9.15
CC(C)C[C@H](NC(=O)[C@H](Cc1ccc(O)cc1)NC(=O)[C@H](CCCNC(=N)N)NC(=O)[C@@H](NC(=O)[C@@H](N)CCCNC(=N)N)C(C)C)C(=O)N[C@H](C(=O)N[C@@H](CCCNC(=N)N)C(=O)N[C@@H](CC(N)=O)C(=O)N[C@@H](Cc1ccc(O)cc1)C(=O)O)[C@@H](C)O [3102.0155] (H-RVRYLTRNY-OH)	8.25
CC(C)C[C@H](NC(=O)[C@@H](N)CCCCN)C(=O)N[C@@H](CCCNC(=N)N)C(=O)N[C@@H](CS)C(=O)N[C@@H](CCCNC(=N)N)C(=O)N[C@@H](CC(N)=O)C(=O)N[C@H](C(=O)N[C@@H](CCC(=O)O)C(=O)N[C@@H](C)C(=O)O)[C@@H](C)O [3102.0105] (H-KLRCRNTEA-OH)	7.85
C[C@@H](O)[C@H](N)C(=O)N[C@H](C(=O)N[C@@H](CCCCN)C(=O)N[C@@H](CC(=O)O)C(=O)N[C@@H](Cc1ccc(O)cc1)C(=O)N[C@@H](Cc1ccccc1)C(=O)N[C@@H](CO)C(=O)N[C@@H](Cc1ccccc1)C(=O)N[C@@H](CCCCN)C(=O)O)[C@@H](C)O [3102.0168] (H-TTKDYFSFK-OH)	8.92
CC[C@H](C)[C@H](NC(=O)[C@H](CCCNC(=N)N)NC(=O)CNC(=O)[C@@H](N)CCCCN)C(=O)N[C@@H](CO)C(=O)N[C@@H](Cc1ccc(O)cc1)C(=O)N[C@@H](Cc1ccc(O)cc1)C(=O)N[C@@H](CCC(=O)O)C(=O)N[C@@H](CCSC)C(=O)O [3102.0058] (H-KGRISYYEM-OH)	7.85
